Reported TGI values for a set of compounds
Test system: IGROV1 ovarian
protocol: NCI tumour cell line growth inhibition, 48 h

# example entries with known answers
compound	assayed-target	TGI
COc1nc2c(c(=O)[nH]1)N=C(c1ccc(Cl)cc1)CC(c1ccccc1)N2 (stereo not drawn)	IGROV1 ovarian	> 100 µM
CC(C)(C)OC(=O)C1/C(=C/CBr)CN1C(=O)OC(C)(C)C (stereo not drawn)	IGROV1 ovarian	26.2 µM

Now for the compound whose TGI we want.
IN: Requested field: TGI. Item: O=C(O)CCC(NC(=O)c1ccc(Oc2nc3ccccc3nc2-c2ccccc2)cc1)C(=O)O (stereo not drawn)
OUT: > 100 µM

Cited source: PubChem BioAssay (NCI)
